test: FRET assay of NBD-Toc transfer from α-TTP variants to SUVs; assay type: biochemical; details: PC vesicles; 0.225 μM NBD-Toc, 2 μM α-TTP, 100 μM vesicles; room temperature
Rate of NBD-Toc transfer to SUV, Rate: recorded values
Write the value in s⁻¹ as a bare number.

K211A: α-TTP mutant, surface Lys211 (helix A10) to Ala (protein, UniProt P49638 1-278, looked up, variant K211A) Alpha-tocopherol transfer …: MAEARSQPSAGPQLNALPDHSPLLQPGLAALRRRAREAGVPLAPLPLTDSFLLRFLRARDFDLDLAWRLLKNYYKWRAECPEISADLHPRSIIGLLKAGYHGVLRSRDPTGSKVLIYRIAHWDPKVFTAYDVFRVSLITSELIVQEVETQRNGIKAIFDLEGWQFSHAFQITPSVAKKIAAVLTDSFPLKVRGIHLINEPVIFHAVFSMIAPFLTEKIKERIHMHGNNYKQSLLQHFPDILPLEYGGEEFSMEDICQEWTNFIMKSEDYLSSISESIQ; 0.105

The reported value for I202D: α-TTP mutant, Ile202 to Asp (helix A10) (protein, UniProt P49638 1-278, looked up, variant I202D) Alpha-tocopherol transfer …: MAEARSQPSAGPQLNALPDHSPLLQPGLAALRRRAREAGVPLAPLPLTDSFLLRFLRARDFDLDLAWRLLKNYYKWRAECPEISADLHPRSIIGLLKAGYHGVLRSRDPTGSKVLIYRIAHWDPKVFTAYDVFRVSLITSELIVQEVETQRNGIKAIFDLEGWQFSHAFQITPSVAKKIAAVLTDSFPLKVRGIHLINEPVDFHAVFSMIKPFLTEKIKERIHMHGNNYKQSLLQHFPDILPLEYGGEEFSMEDICQEWTNFIMKSEDYLSSISESIQ in terms of Rate of NBD-Toc transfer to SUV, Rate is 0.028

The reported value for V206A: α-TTP mutant, Val206 to Ala (protein, UniProt P49638 1-278, looked up, variant V206A) Alpha-tocopherol transfer …: MAEARSQPSAGPQLNALPDHSPLLQPGLAALRRRAREAGVPLAPLPLTDSFLLRFLRARDFDLDLAWRLLKNYYKWRAECPEISADLHPRSIIGLLKAGYHGVLRSRDPTGSKVLIYRIAHWDPKVFTAYDVFRVSLITSELIVQEVETQRNGIKAIFDLEGWQFSHAFQITPSVAKKIAAVLTDSFPLKVRGIHLINEPVIFHAAFSMIKPFLTEKIKERIHMHGNNYKQSLLQHFPDILPLEYGGEEFSMEDICQEWTNFIMKSEDYLSSISESIQ in terms of Rate of NBD-Toc transfer to SUV, Rate is 0.154

The reported value for M209A: α-TTP mutant, Met209 to Ala (protein, UniProt P49638 1-278, looked up, variant M209A) Alpha-tocopherol transfer …: MAEARSQPSAGPQLNALPDHSPLLQPGLAALRRRAREAGVPLAPLPLTDSFLLRFLRARDFDLDLAWRLLKNYYKWRAECPEISADLHPRSIIGLLKAGYHGVLRSRDPTGSKVLIYRIAHWDPKVFTAYDVFRVSLITSELIVQEVETQRNGIKAIFDLEGWQFSHAFQITPSVAKKIAAVLTDSFPLKVRGIHLINEPVIFHAVFSAIKPFLTEKIKERIHMHGNNYKQSLLQHFPDILPLEYGGEEFSMEDICQEWTNFIMKSEDYLSSISESIQ in terms of Rate of NBD-Toc transfer to SUV, Rate is 0.140
